The following binders are listed with their measured pKd values.
target: T1, human ActRIIA (human, UniProt P27037 20-135, limits assumed); experiment: MSD-SET;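 further: solution equilibrium titration: antibodies held at fixed concentration, equilibrated overnight at 4 °C with serially diluted ActR2A or ActR2B, unbound antibody captured on antigen-coated plate, electrochemiluminescence readout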
T1 construct: antigen in MSD-SET; also called ACVR2A; ActR2A
T1 sequence (P27037 20-135 limits assumed): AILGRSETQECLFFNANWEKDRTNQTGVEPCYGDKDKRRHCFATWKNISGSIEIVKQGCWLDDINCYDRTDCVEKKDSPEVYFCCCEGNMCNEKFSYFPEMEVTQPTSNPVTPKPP
pKd is a log-scale quantity: -log10 of the concentration expressed in molar.

Reference set, count: 4
[
  {
    "Binder": "Antibody Dürrfloischeggla (antibody, V domains shown, full-length IgG) VH: QVQLVQSGAEVKKPGASVKVSCKASGYTFTSSYINWVRQAPGQGLEWMGTINAVSGSTSYAQKFQGRVTMTRDVSISTAYMELSRLRSDDTAVYYCARGGWFDYWGQGTLVTVSS VL: QSALTQPASVSGSPGQSITISCTGTSSDVGSYNVVNWYQQHPGKAPKLMISGVSKRESGVSNRFSGSKSGNTASLTISGLQAEDEADYYCGTFAGGKYYGVFGGGTKLTVL",
    "Measured value": 10.48
  },
  {
    "Binder": "Antibody Ochsauga (antibody, V domains shown, full-length IgG) VH: QVQLVQSGAEVKKPGASVKVSCKASGYTFTSSYINWVRQAPGQGLEWMGTINAVSGSTSYAQKFQGRVTMTRDTSISTAYMELSRLRSDDTAVYYCARGGWFDVWGQGTLVTVSS VL: QSALTQPASVSGSPGQSITISCTGTSSDIGSYNYVNWYQQHPGKAPKLMIYGVSKRESGVSNRFSGSKSGNTASLTISGLQAEDEADYYCGTFAGGSYYGVFGGGTKLTVL",
    "Measured value": 10.80
  },
  {
    "Binder": "Antibody Pfitzauf (antibody, V domains shown, full-length IgG) VH: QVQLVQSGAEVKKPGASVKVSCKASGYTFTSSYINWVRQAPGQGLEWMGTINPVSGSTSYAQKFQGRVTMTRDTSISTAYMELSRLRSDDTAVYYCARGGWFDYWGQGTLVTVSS VL: QSALTQPASVSGSPGQSITISCTGTSSDVGSGNYVNWYQQHPGKAPKLMIYGVSKRESGVSNRFSGSKSGNTASLTISGLQAEDEADYYCGTFAGGKYYGVFGGGTKLTVL",
    "Measured value": 10.28
  },
  {
    "Binder": "Antibody Ochsamaulsalat (antibody, V domains shown, full-length IgG) VH: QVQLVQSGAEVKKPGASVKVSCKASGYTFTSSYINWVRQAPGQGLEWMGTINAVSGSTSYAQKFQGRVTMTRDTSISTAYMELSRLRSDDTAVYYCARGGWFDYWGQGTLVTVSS VL: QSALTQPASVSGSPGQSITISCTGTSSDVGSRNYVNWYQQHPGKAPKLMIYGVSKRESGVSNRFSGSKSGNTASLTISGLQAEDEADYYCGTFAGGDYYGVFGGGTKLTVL",
    "Measured value": 10.70
  }
]

Shift focus to the following entry.
Query: Which pKd is listed for Antibody Biiramooscht (antibody, V domains shown, full-length IgG) VH: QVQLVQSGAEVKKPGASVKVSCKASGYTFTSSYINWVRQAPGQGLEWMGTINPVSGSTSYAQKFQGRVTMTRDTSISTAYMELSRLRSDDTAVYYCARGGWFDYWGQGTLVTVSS VL: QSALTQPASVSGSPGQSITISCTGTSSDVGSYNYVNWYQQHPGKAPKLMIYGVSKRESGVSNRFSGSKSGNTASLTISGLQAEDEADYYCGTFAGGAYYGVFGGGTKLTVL ?
Response: 10.55

Data credit: patent US20250243286A1
